- Tested on: HOP-92 NSCLC
- assay overview: NCI-60 one-dose screen, 48 h
- condition label: 10 µM unless noted
This is part of a sample that, as a whole, favours compounds with a hit. Of some 83,000 tested, about 20% had one in any assay. Activity calls are given as the source filed them. Rule for the calls: active = growth percent below 10; inactive = the rest.
Tick one outcome: yes (active), no (inactive)

Qu. Recorded call for Nc1ccc(C2=NN(C(=O)c3cc(-c4ccc(Cl)cc4)nc4ccccc34)C(c3ccccc3)C2)cc1 (centres undefined) ?
Ans. no

Qu. I would be grateful if you could indicate the recorded call for CC(=O)ON1CCCC(P(=O)(OCOC(=O)C(C)(C)C)OCOC(=O)C(C)(C)C)C1=O (centres undefined) .
Ans. yes

Qu. I would be grateful if you could indicate the recorded call for CC(=O)Oc1ccc(O)cc1 .
Ans. no

Qu. What is the recorded call for this molecule in the test? Nc1c(C(=O)c2ccccc2)sc2nc(-c3cc4ccccc4o3)cc(-c3ccc(Cl)cc3)c12
Ans. yes

Qu. Assay outcome for CN(C)[C@@H]1C(=O)C(C(N)=O)=C(O)[C@@]2(O)C(=O)C3=C(O)c4c(O)cc(CN5CCc6ccccc6C5)c(Cl)c4C[C@H]3C[C@@H]12 : what was it?
Ans. yes

Qu. Tell me the recorded outcome of this test for COc1ccc(NC(=O)Nc2ccc(Nc3nc(C)cc(Nc4ccc(C)cc4)n3)cc2)cc1 .
Ans. yes

Qu. // return assay outcome for N#Cc1nc(-c2ccccc2)oc1S(=O)(=O)NCC(c1ccc(Cl)cc1)N1CCCCC1 (centres undefined)
Ans. no

Qu. Recorded call for COc1ccc(C(=O)c2cc(F)c(F)c(OC)c2F)cc1OC(=O)CCl ?
Ans. no

Qu. Recorded test call requested for COc1ccc(C(=O)c2cc(OC)c(OC)c(OC)c2)cc1OC(=O)CCl
Ans. no

----------
- Tested on: HT29 colon
- assay overview: NCI-60 one-dose screen, 48 h
- condition label: 10 µM unless noted
The panel holds about 83,000 compounds, 20% with a hit somewhere; the sample as a whole holds those more often. The source made the active and inactive calls. Rule for the calls: active = growth percent below 10; inactive = the rest.
Form entry, call: pick from active, inactive

Qu. State the result this test recorded for Nc1ccc(C2=NN(C(=O)c3cc(-c4ccc(Cl)cc4)nc4ccccc34)C(c3ccccc3)C2)cc1 (configuration not stated) .
Ans. inactive

Qu. Per the assay record, what outcome was assigned to O=C(CCl)N1CCCc2ccccc21 ?
Ans. inactive

Qu. Which result was noted for this compound in the test: C=CCn1c(CN2CCN(c3cc4c(cc3F)c(=O)c(C(=O)O)cn4C3CC3)CC2)n[nH]c1=S
Ans. inactive

Qu. For this compound, state the assay outcome: Cn1nc(C(F)(F)F)c(-c2cc(C(F)(F)F)cc(C(F)(F)F)c2)c1-c1ccc(OCc2ccc(Cl)cc2)cc1O
Ans. active

Qu. Assay result, entry CCN(CC)CC#CCOC(=O)[C@]1(C)CCC[C@]2(C)[C@H]3C[C@H]4C(C(C)C)=C[C@]3(CC[C@H]21)[C@@H]1C(=O)CCC(=O)[C@@H]14 — outcome?
Ans. active

Qu. Tell me the assay call for C[C@H]1[C@H](C)CC[C@]2(C(=O)OCCOCCOCC[P+](c3ccccc3)(c3ccccc3)c3ccccc3)CC[C@]3(C)C(=CC[C@@H]4[C@@]5(C)CC[C@H](OC(=O)C(Cl)Cl)C(C)(C)[C@@H]5CC[C@]43C)[C@H]12 please.
Ans. active

Qu. Just curious, what result did COc1cc(N=Nc2cc(S(=O)(=O)O)cc3cc(S(=O)(=O)O)cc(O)c23)c(C)cc1N=Nc1c(S(=O)(=O)O)cc2cc(Nc3ccccc3)ccc2c1O get here?
Ans. inactive

Qu. Which result was noted for this compound in the test: CC(=O)Nc1ccc2c(c1)Cc1cc(F)ccc1-2
Ans. inactive

Qu. Recorded call for COc1ccc(Nc2cc(NC(=O)CNc3cc(OC)c(Cl)c(OC)c3Cl)ncn2)cc1 ?
Ans. inactive

Qu. Could you please tell me the result logged for CCSc1ccc(C2C(Br)C(=O)N2c2cc(OC)c(OC)c(OC)c2)cc1 (configuration not stated) in this assay?
Ans. active

Qu. Just curious, what result did CC(C)(C)c1ccc(O)c(Cc2cc(C(C)(C)C)ccc2O)c1 get here?
Ans. inactive

Qu. Identify the outcome logged in this assay for the compound shown: NC(=N\N=C\c1ccccc1O)/C(N)=N/N=C/c1ccccc1O
Ans. inactive

Qu. Record request — test call for CN1C(=O)c2cc(Cl)nc3c(NC(=O)c4cccc(Cl)c4)c(Cl)c(NC(=O)c4cccc(Cl)c4)c1c23
Ans. active

Qu. How was c1ccc(-c2n(Cc3ccc4ccccc4n3)cc[n+]2Cc2ccc3ccccc3c2)cc1 classified in this test?
Ans. active

Qu. Assay outcome for CN(CCC#N)C(=O)Nc1ccccc1 : what was it?
Ans. inactive

Qu. // outcome(item) with item = COc1ccc(C2=NN(c3ccc(S(N)(=O)=O)cc3)C(c3ccc(Cl)cc3)C2)c(O)c1 (configuration not stated)
Ans. inactive

Qu. What did this assay record as the result for C=C(C)[C@@H]1CCC=C2CC[C@]3(C)[C@H](CC[C@@H]4[C@@]5(C)CCCNC(C)(C)[C@@H]5CC[C@]43C)[C@H]21 ?
Ans. active

Qu. Short answer needed: outcome of this test for C=C1C(=O)O[C@H]2[C@H]1CC/C(C=Nc1c(N)cc(C(F)(F)F)cc1Br)=C\CC[C@@]1(C)O[C@@H]21 ?
Ans. active

Qu. Recorded test call requested for O=C(Nc1nc(-c2ccccc2)cs1)c1cc(-c2ccc(Br)cc2)nc2ccccc12
Ans. inactive

Qu. Tell me the recorded outcome of this test for Cc1cccc(C)c1Nc1nnc(-c2ccc(F)cc2)o1 .
Ans. inactive

Qu. Please indicate how the test categorized COC(=O)CCc1cc(O)c2c(c1)[C@@H](C(=O)OC)[C@H](c1ccc(O)c(O)c1)O2 .
Ans. inactive

Qu. Short answer needed: outcome of this test for C=C1C(=O)O[C@H]2[C@H]1CC/C(COC(=O)NCc1nc3ccccc3[nH]1)=C\CC[C@@]1(C)O[C@@H]21 ?
Ans. inactive

Qu. Any idea what this test logged for O=c1cc(/C=N\Nc2nc(-c3ccc(Cl)cc3Cl)cs2)c2cc(Cl)ccc2o1 ?
Ans. inactive

Qu. Please let me know the test result on file for CCCn1c2cc(OCc3cn(-c4ccc(Cl)cc4)nn3)ccc2c2ccnc(C)c21 .
Ans. inactive

Qu. What did the test return for Cc1cccc(C)c1NC(=O)CN(CC(C)C)CC(O)COc1ccccc1 (configuration not stated) ?
Ans. inactive

Qu. Look up the recorded call for O=[N+]([O-])c1cccc(CN(Cc2cccc([N+](=O)[O-])c2O)c2ccccc2)c1O in this test.
Ans. inactive

Qu. Entry C=C1C(=O)O[C@H]2[C@H]1CC/C(COC(=O)c1cc3ccccc3o1)=C\CC[C@@]1(C)O[C@@H]21 : call = ?
Ans. active

Qu. Any idea what this test logged for COc1ccc2[nH]c(=O)c(/C=C/C(=O)c3ccccc3OC)cc2c1 ?
Ans. active

Qu. Which outcome did this test record for the compound CCCCC(=O)Nc1c(C(=O)Nc2ccccc2)sc2nc3c(cc12)C(OC(=O)CCCC)CCC3 (configuration not stated) ?
Ans. inactive

Qu. Could you kindly confirm the outcome this assay logged for COC(=O)c1ccc2c(c1)n(Cc1ccc3ccccc3c1)c[n+]2Cc1ccc2ccccc2c1 ?
Ans. inactive

Qu. Called result for Cc1ccc(C2CC(c3ccc(Nc4nc(NCCO)nc(NCCO)n4)cc3)=NN2c2ccc(Cl)cc2)cc1 (configuration not stated)
Ans. inactive

Qu. Dear colleague, could you share the recorded outcome for C[C@H](Oc1cc(-c2cnn(C3CCNCC3)c2)cnc1N)c1c(Cl)ccc(F)c1Cl when you have a moment?
Ans. inactive

Qu. Name the outcome recorded for O=Cc1[nH]c(Sc2ccccc2)c2ccccc12 in the assay.
Ans. inactive

Qu. Test call for this compound, please: Cc1ccccc1NC(=O)c1sc2nc(C)c(C(C)O)cc2c1N (configuration not stated)
Ans. active

Qu. Returns: the outcome recorded for CCOC(=O)C(=Cc1c(-c2ccccc2)[nH]c2ccccc12)C(=O)OCC in this assay.
Ans. inactive

Qu. Could you please tell me the result logged for Cc1ccc(C(=O)O)o1 in this assay?
Ans. inactive

Qu. GET /call?item= CCCn1cc(/C=N\N=C2\C(=O)Nc3ccc(C)cc32)c2ccccc21 returns the recorded outcome of this test.
Ans. inactive
